System Under Test: PD-1/PD-L1 interaction (PD-1-Ig / PD-L1-His) (Homo sapiens (Human))
Sequence (Q9NZQ7 other isoform, or with tags, fused parts or gaps): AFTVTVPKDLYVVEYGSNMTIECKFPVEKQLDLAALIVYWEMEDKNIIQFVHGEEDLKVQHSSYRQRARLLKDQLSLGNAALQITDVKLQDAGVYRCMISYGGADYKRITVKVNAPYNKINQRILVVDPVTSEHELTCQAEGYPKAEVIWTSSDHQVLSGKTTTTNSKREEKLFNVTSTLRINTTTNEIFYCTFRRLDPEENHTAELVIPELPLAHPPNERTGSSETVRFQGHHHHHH
Procedure Summary: PD-1/PD-L1 Homogenous Time-Resolved Fluorescence (HTRF) binding assay
Study Conditions: PD-1/PD-L1 HTRF binding assay; numeric value; read-out: Range or IC50
Measured Endpoint: IC50 (nM)

Below are worked cases with known answers.
# Smiles Str, Measured Endpoint, Numeric Result
records = [
    ("Cc1c(COc2cc(OCc3cncc(C#N)c3)c(CN[C@H](CC(N)=O)C(=O)O)cc2Cl)cccc1-c1ccc2c(c1)OCCO2", "IC50", 5.54),
    ("CC(=O)NCCNCc1ccc(OCc2cccc(-c3ccccc3)c2C)cc1OCc1ccccc1[N+](=O)[O-]", "IC50", 986),
    ("Cc1c(COc2ccc(CN[C@H](CO)C(=O)O)c(OCc3cccc(C#N)c3)c2)cccc1-c1ccccc1", "IC50", 4.55),
    ("Cc1c(COc2cc(OCc3cncc(C#N)c3)c(CN[C@@H](Cc3cccnc3)C(=O)O)cc2Cl)cccc1-c1ccc2c(c1)OCCO2", "IC50", 50),
]

A: Cc1c(COc2ccc(CN[C@](C)(CO)C(=O)O)c(OCc3cccc(C#N)c3)c2Cl)cccc1-c1ccc2c(c1)OCCO2
B: Cc1c(COc2cc(OCc3cccc(C#N)c3)c(CNC3(C(=O)O)CCN(C)CC3)cc2Cl)cccc1-c1ccc2c(c1)OCCO2
C: CC(=O)NCCNCc1ccc(OCc2cccc(-c3ccccc3)c2C)cc1OCc1cccc(OC(F)(F)F)c1
In: Your job: order these 3 records by IC50, ascending. // list labels; follow requested order
Out: B, A, C
(B: 6.07 nM, A: 149 nM, C: 828 nM)
